Listing of entries alongside the reported inhibition at 1 µM.
- MEASURED ON: BRAF V600E (Homo sapiens (Human), UniProt P15056, V600E)
- Sequence (P15056 whole entry V600E): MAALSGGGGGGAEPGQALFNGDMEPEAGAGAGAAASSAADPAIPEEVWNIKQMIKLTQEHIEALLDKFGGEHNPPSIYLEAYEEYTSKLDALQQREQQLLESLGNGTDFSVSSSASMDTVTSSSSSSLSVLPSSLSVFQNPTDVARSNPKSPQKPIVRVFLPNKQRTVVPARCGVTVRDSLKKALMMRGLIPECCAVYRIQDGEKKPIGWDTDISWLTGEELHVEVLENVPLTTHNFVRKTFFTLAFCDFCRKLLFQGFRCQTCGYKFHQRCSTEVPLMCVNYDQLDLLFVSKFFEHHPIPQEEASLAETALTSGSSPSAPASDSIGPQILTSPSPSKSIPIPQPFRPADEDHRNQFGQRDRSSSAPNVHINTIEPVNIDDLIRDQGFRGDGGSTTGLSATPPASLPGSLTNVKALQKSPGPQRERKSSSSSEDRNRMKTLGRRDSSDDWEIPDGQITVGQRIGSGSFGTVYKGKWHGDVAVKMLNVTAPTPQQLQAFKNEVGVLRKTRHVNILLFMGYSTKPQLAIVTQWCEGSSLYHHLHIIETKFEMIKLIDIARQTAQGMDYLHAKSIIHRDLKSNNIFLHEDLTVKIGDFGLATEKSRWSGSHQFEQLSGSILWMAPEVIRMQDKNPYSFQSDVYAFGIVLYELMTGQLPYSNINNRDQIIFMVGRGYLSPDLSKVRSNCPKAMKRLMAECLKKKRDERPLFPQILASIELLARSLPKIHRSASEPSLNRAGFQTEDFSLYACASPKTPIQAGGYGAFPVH
- PROCEDURE SUMMARY: Z′-LYTE kinase inhibition assay (Invitrogen), BRAF V600E
- Format: biochemical
- PARTICULARS: 1 μM compound, Z′-LYTE method; read-out: % inhibition at 1 μM against BRAF V600E

Consider the reported inhibition at 1 µM for these molecules:
> print(dat)
                                   molecule     result
1  Cn1cc(-c2cnc3ccc(C(=O)c4cccc(NC(=O)c5ccc(Cl)c(C(F)(F)F)c5)c4)cc3n2)cn1 [Compound C130]      > 89%
2  O=C(Nc1ccc(F)c(F)c1)Nc1cc(F)c(F)c(C(=O)c2ccc3ncc(N4CCOCC4)nc3c2)c1 [Compound C096]      > 89%
3  O=C(Nc1cc(F)cc(C(=O)c2ccc3nccnc3c2)c1)c1ccc(Cl)c(C(F)(F)F)c1 [Compound C127]  70 to 89%
4  O=C(Nc1cc(F)cc(C(=O)c2ccc3ncc(N4CCOCC4)nc3c2)c1)c1cccc(C(F)(F)F)c1 [Compound C143]      > 89%
5  O=C(Nc1cc(F)cc(C(=O)c2ccc3nccnc3c2)c1)Nc1ccc(F)c(F)c1 [Compound C065]      > 89%

Tell me inhibition at 1 µM reported for O=C(Nc1ccc(Cl)c(C(F)(F)F)c1)Nc1ccc(F)c(C(=O)c2ccc3nccnc3c2)c1F [Compound C012] < 70%

Tell me inhibition at 1 µM reported for O=C(Nc1cc(F)cc(C(=O)c2ccc3ncc(N4CCOCC4)nc3c2)c1)Nc1ccc(Cl)c(C(F)(F)F)c1 [Compound C031] 70 to 89%

###

- MEASURED ON: BRAF V600E (Homo sapiens (Human), UniProt P15056, V600E)
- PROCEDURE SUMMARY: Z′-LYTE kinase inhibition assay (Invitrogen), BRAF V600E
- PARTICULARS: Z′-LYTE method; read-out: IC50 against BRAF V600E
pIC50: −log10 of the molar value.
Listing of entries alongside the reported pIC50.

Consider the reported pIC50 for these compounds:
> print(dat)
                                   compound                               measured.on  measured.parameter  result
1  O=C(Nc1cccc(C(F)(F)F)c1)Nc1ccc(F)c(C(=O)c2ccc3ncc(N4CCOCC4)nc3c2)c1 [Compound C036]  BRAF V600E (Homo sapiens (Human), UniProt P15056, V600E)               pIC50  > 7.00
2  O=C(Nc1cc(F)cc(C(=O)c2ccc3ncc(N4CCOCC4)nc3c2)c1)c1cccc(C(F)(F)F)c1 [Compound C143]  BRAF V600E (Homo sapiens (Human), UniProt P15056, V600E)               pIC50  > 7.00
3  O=C(Nc1cccc(F)c1)Nc1ccc(F)c(C(=O)c2ccc3ncc(N4CCOCC4)nc3c2)c1 [Compound C035]  BRAF V600E (Homo sapiens (Human), UniProt P15056, V600E)               pIC50  > 7.00
4  O=C(Nc1cccc(C(=O)c2ccc3ncc(N4CCOCC4)nc3c2)c1)Nc1ccc(Cl)c(C(F)(F)F)c1 [Compound C018]  BRAF V600E (Homo sapiens (Human), UniProt P15056, V600E)               pIC50  > 7.00
5  O=C(Nc1ccc(F)c(C(=O)c2ccc3nccnc3c2)c1)Nc1ccc(Cl)c(C(F)(F)F)c1 [Compound C015]  BRAF V600E (Homo sapiens (Human), UniProt P15056, V600E)               pIC50  > 7.00
6  O=C(Nc1cccc(F)c1)Nc1cccc(C(=O)c2ccc3ncc(N4CCOCC4)nc3c2)c1 [Compound C016]  BRAF V600E (Homo sapiens (Human), UniProt P15056, V600E)               pIC50  > 7.00
7  O=C(Nc1cccc(C(=O)c2ccc3ncc(-c4cn[nH]c4)nc3c2)c1)Nc1ccc(Cl)c(C(F)(F)F)c1 [Compound C029]  BRAF V600E (Homo sapiens (Human), UniProt P15056, V600E)               pIC50  > 7.00
8  O=C(Nc1cccc(C(=O)c2ccc3nccnc3c2)c1)Nc1cccc(C(F)(F)F)c1 [Compound C009]  BRAF V600E (Homo sapiens (Human), UniProt P15056, V600E)               pIC50  > 7.00

Tell me pIC50 reported for O=C(Nc1cccc(C(=O)c2ccc3ncc(-c4cccnc4)nc3c2)c1)Nc1ccc(Cl)c(C(F)(F)F)c1 [Compound C022] > 7.00

###

- MEASURED ON: KDR (VEGFR2) (Homo sapiens (Human), UniProt P35968)
- Sequence (P35968 20-1356): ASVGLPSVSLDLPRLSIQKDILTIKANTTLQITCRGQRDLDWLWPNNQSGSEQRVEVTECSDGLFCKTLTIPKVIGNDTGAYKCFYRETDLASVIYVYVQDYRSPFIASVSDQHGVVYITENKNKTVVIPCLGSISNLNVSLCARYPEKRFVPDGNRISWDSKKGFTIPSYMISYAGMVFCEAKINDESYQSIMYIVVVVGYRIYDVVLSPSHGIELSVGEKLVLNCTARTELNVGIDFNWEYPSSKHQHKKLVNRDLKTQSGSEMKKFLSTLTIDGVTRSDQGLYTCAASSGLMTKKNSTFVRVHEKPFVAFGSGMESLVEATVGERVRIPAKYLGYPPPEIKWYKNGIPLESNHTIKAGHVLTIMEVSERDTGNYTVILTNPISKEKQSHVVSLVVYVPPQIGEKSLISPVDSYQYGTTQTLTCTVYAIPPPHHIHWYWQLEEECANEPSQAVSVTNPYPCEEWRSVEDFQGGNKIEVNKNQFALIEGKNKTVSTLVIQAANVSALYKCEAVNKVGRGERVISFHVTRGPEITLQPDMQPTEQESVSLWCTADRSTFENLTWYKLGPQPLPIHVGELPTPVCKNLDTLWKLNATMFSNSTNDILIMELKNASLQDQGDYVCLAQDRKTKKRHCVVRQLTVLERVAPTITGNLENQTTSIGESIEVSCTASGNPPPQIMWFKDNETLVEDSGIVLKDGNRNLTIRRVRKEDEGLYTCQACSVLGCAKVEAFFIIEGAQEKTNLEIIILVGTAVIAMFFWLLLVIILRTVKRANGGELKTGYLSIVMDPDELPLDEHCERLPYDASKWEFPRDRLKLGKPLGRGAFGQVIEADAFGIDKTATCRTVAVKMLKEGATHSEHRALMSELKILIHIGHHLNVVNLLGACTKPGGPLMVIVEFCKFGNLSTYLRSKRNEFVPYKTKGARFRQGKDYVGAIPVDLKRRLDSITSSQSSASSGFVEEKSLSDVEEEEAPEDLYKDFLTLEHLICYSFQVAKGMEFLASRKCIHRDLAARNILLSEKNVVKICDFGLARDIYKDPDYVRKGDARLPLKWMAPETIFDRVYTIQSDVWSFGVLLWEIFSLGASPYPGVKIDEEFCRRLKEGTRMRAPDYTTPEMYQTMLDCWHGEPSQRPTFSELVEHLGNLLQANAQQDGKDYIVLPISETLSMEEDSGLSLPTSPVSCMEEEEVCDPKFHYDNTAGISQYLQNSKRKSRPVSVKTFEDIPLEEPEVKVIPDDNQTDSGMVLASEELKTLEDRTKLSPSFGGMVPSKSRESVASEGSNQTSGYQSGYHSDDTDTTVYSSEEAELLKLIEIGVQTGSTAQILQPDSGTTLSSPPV
- PROCEDURE SUMMARY: Z′-LYTE kinase inhibition assay (Invitrogen), KDR
- Type: biochemical
- PARTICULARS: 1 μM compound, Z′-LYTE method; read-out: % inhibition at 1 μM against KDR
Listing of entries alongside the reported inhibition at 1 µM.

Consider the reported inhibition at 1 µM for these molecules:
> print(dat)
                                   molecule  measured.parameter  result
1  O=C(Nc1cccc(Cl)c1)Nc1ccc(F)c(C(=O)c2ccc3nccnc3c2)c1 [Compound C072]  inhibition at 1 µM   < 70%
2  O=C(Nc1cc(F)cc(Cl)c1)Nc1cc(F)cc(C(=O)c2ccc3nccnc3c2)c1 [Compound C062]  inhibition at 1 µM   < 70%
3  O=C(Nc1cc(F)cc(F)c1)Nc1ccc(F)c(C(=O)c2ccc3ncc(N4CCOCC4)nc3c2)c1 [Compound C094]  inhibition at 1 µM   < 70%

Proceeding to the next molecule to report its inhibition at 1 µM.
Tell me inhibition at 1 µM reported for Cn1cc(-c2cnc3ccc(C(=O)c4cccc(NC(=O)Nc5ccc(Cl)c(C(F)(F)F)c5)c4)cc3n2)cn1 [Compound C028] > 89%

###

Listing of entries alongside the reported inhibition at 1 µM.
- MEASURED ON: BRAF V600E (Homo sapiens (Human), UniProt P15056, V600E)
- PROCEDURE SUMMARY: Z′-LYTE kinase inhibition assay (Invitrogen), BRAF V600E
- Format: biochemical
- PARTICULARS: 1 μM compound, Z′-LYTE method; read-out: % inhibition at 1 μM against BRAF V600E

> print(dat)
                                   molecule                               measured.on     result
1  O=C(Nc1cccc(C(=O)c2ccc3nccnc3c2)c1)c1ccc(Cl)c(C(F)(F)F)c1 [Compound C111]  BRAF V600E (Homo sapiens (Human), UniProt P15056, V600E)  70 to 89%
2  O=C(Nc1ccc(Cl)cc1)Nc1ccc(F)c(C(=O)c2ccc3nccnc3c2)c1 [Compound C074]  BRAF V600E (Homo sapiens (Human), UniProt P15056, V600E)      > 89%

Tell me its inhibition at 1 µM on BRAF V600E (Homo sapiens (Human), UniProt P15056, V600E): O=C(Nc1cccc(F)c1)Nc1cc(F)c(F)c(C(=O)c2ccc3nccnc3c2)c1 [Compound C024] > 89%

Tell me its inhibition at 1 µM on BRAF V600E (Homo sapiens (Human), UniProt P15056, V600E): O=C(c1cccc(NC(=O)c2cc(C(F)(F)F)ccc2Cl)c1)c1ccc2nccnc2c1 [Compound C106] 70 to 89%

Tell me its inhibition at 1 µM on BRAF V600E (Homo sapiens (Human), UniProt P15056, V600E): O=C(Nc1cncc(Cl)c1)Nc1ccc(F)c(C(=O)c2ccc3ncc(N4CCOCC4)nc3c2)c1 [Compound C081] > 89%

Tell me its inhibition at 1 µM on BRAF V600E (Homo sapiens (Human), UniProt P15056, V600E): O=C(Nc1ccc(Cl)cc1)Nc1cc(F)cc(C(=O)c2ccc3nccnc3c2)c1 [Compound C063] > 89%

Tell me its inhibition at 1 µM on BRAF V600E (Homo sapiens (Human), UniProt P15056, V600E): O=C(Nc1cccc(F)c1)Nc1cc(F)cc(C(=O)c2ccc3nccnc3c2)c1 [Compound C025] > 89%

Tell me its inhibition at 1 µM on BRAF V600E (Homo sapiens (Human), UniProt P15056, V600E): O=C(Nc1cc(F)cc(C(=O)c2ccc3ncc(N4CCOCC4)nc3c2)c1)Nc1ccc(Cl)c(Cl)c1 [Compound C050] > 89%

###

- MEASURED ON: BRAF V600E (Homo sapiens (Human), UniProt P15056, V600E)
- PROCEDURE SUMMARY: Z′-LYTE kinase inhibition assay (Invitrogen), BRAF V600E
- Assay type: biochemical
- PARTICULARS: 1 μM compound, Z′-LYTE method; read-out: % inhibition at 1 μM against BRAF V600E
- Description: Inhibitory activities Inhibitory activities of compounds against BRAF, and BRAF V600E were measured by Invitrogen using Z′-LYTE® Method as briefly described in the following. 4× Test compounds are dissolved in 1% DMSO. […] Fluorescence was read by plate reader. IC50 was calculated by plotting the concentration of compound vs the percentage of inhibition in treated wells using GraphPad Prism 5. […]
MEASURED PARAMETER: inhibition at 1 µM

> print(dat)
                                   compound                               measured.on     result
1  O=C(Nc1cccc(F)c1)Nc1cccc(C(=O)c2ccc3ncc(N4CCOCC4)nc3c2)c1 [Compound C016]  BRAF V600E (Homo sapiens (Human), UniProt P15056, V600E)      > 89%
2  O=C(Nc1cc(F)cc(C(=O)c2ccc3ncc(N4CCOCC4)nc3c2)c1)Nc1ccc(F)c(Cl)c1 [Compound C044]  BRAF V600E (Homo sapiens (Human), UniProt P15056, V600E)      > 89%
3  O=C(Nc1ccc(F)c(C(=O)c2ccc3nccnc3c2)c1F)c1cccc(C(F)(F)F)c1 [Compound C114]  BRAF V600E (Homo sapiens (Human), UniProt P15056, V600E)  70 to 89%

Tell me inhibition at 1 µM reported for NCCNc1cnc2ccc(C(=O)c3cc(NC(=O)Nc4cccc(F)c4)ccc3F)cc2n1 [Compound C088] > 89%

Tell me inhibition at 1 µM reported for O=C(Nc1cccc(F)c1)Nc1cccc(C(=O)c2ccc3ncc(N4CCCC4)nc3c2)c1 [Compound C019] > 89%
